B1: library; a variant is named by its letters at N, in order (parent)
chain: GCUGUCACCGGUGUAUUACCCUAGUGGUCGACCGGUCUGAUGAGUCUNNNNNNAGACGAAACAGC

- Variants of: B1
- protocol-description: normalized RNA/DNA level with ligand (relative to sTRSVctl = 100) (log10 (% of sTRSVctl)); ligand: hypoxanthine (xanthine aptamer); higher = less ribozyme self-cleavage, higher mRNA level
- conditions: ligand concentration (+) RNA-Seq: 5 mM, HEK293T, reporter: mCherry (pCS4076), ligand present: yes
normalized RNA/DNA level with ligand (log10) overview
measured-endpoint: normalized RNA/DNA level with ligand (log10)

{"columns": ["variant-notation", "measured"],
 "data": [
  ["AUUCCA", 1.92],
  ["GUUGCC", 1.97],
  ["UCCCUU", 1.92],
  ["CGCGGG", 1.84],
  ["CCCAUG", 1.93],
  ["GGUGGG", 1.9],
  ["CUACAU", 1.95],
  ["GUCGAU", 1.93],
  ["UGGUCG", 1.92],
  ["AAUCGU", 1.94],
  ["AAUAAA", 1.87],
  ["CUAAUA", 1.87],
  ["UGAGGG", 1.87]
]}
